Test: Low molecular weight heparin (LMWH) oral/intracolonic delivery, plasma LMWH by anti-Factor Xa assay
Format: in vivo, Sprague-Dawley rats
Conditions: IC, rats; delivery agent compound 25 mg/kg, LMWH 750 IU/kg, 1 ml/kg
QUANTITY NAME: Mean Peak Plasma LMWH Concentration ± SD (IU/ml)

Some entries whose results are on file:
INSERT INTO results (molecule, test_value) VALUES
  ('Nc1cc(Cl)ccc1OCCCCCCCC(=O)O [Compound 22]', 1.496),
  ('CC(=O)c1ccccc1OCc1ccc(C(=O)O)cc1 [Compound 1]', 1.022);

P. O=C(O)CCCCCCOc1ccccc1O [Compound 6, (2-hydroxyphenyl)-7-oxyheptanoic acid]
Q. CCC(=O)c1ccccc1OCCCCCCCC(=O)O [Compound 28]
Select the item with the higher value of Mean Peak Plasma LMWH Concentration ± SD from the options P and Q listed. Could you answer with the label of the item you picked?
Q
(Q: 1.43 IU/ml, P: 0.47 IU/ml)
